System: SF-539
Assay: NCI tumour cell line growth inhibition, 48 h
Calls of active or inactive are those of the source. Cut-off read from the data, not from the text of the source: active = GI50 up to about 1.1 µM and inactive = higher.
// allowed return values: active, inactive

What was the test verdict on CCOC(=O)NC(=O)c1cn(CCCCCCOC(=O)NCCCCCCNC(=O)OCCCCCCn2cc(C(=O)NC(=O)OCC)c(=O)[nH]c2=O)c(=O)[nH]c1=O ?
inactive

====

Test system: SW-620
Assay: NCI tumour cell line growth inhibition, 48 h
Calls of active or inactive are those of the source. No stated cut-off is given here; in the data, active = GI50 up to about 1.1 µM and inactive = higher.
A correct response names exactly one class from t for active, f for inactive

Answer briefly: the call reported for Cc1nc(C)c(C(=O)NNC(=O)c2ccccc2)cc1C(=O)NNC(=O)c1ccccc1 in this assay.
f

Tell me the recorded outcome of this test for Cc1ccc(-c2c(C#N)c(O)n(NS(=O)(=O)c3ccccc3)c(=O)c2C#N)cc1 .
f

Hi, do you know how O=C1c2ccccc2C(=O)c2c1oc1cc(O)c(Cl)cc21 came out in this test?
f

Next:
For Cc1n[nH]c(=O)n1/N=C/c1cccc(Cl)c1 , which call appears in the assay record?
f

Name the outcome recorded for O=C(O)c1cnc2cc(OCc3ccccc3)ccc2c1O in the assay.
f

Per the records of this test, what outcome belongs to CN(CC(=O)O)S(=O)(=O)c1ccc(Cl)cc1 ?
f

Give the logged outcome of this assay for the following compound: Cn1/c(=N\N=C2\C=C3CCCCC3(C)CC2)sc2ccccc21 (stereo unspecified)
f

// param item: O=c1[nH]c(-c2ccc([N+](=O)[O-])cc2)nc2ccc(Cl)cc12 ; yields the recorded call
f

Per the assay record, what outcome was assigned to CC12CCCC(C#N)(C1)OC2=O (stereo unspecified) ?
f

How was CN(C)c1ccc(C=c2c3ccccc3n3c2c2ccccc2[n+]3C)cc1 classified in this test?
t

Could you please tell me the result logged for COC(=O)C1=C(\O)C[C@@]2(C)CC[C@@H](C(=O)OC)C2C/C=C\1C(=O)OC (stereo partly specified) in this assay?
f

All figures here come from ChEMBL document CHEMBL1201862.
